From: paper PMC6792352

As shown below, each of these compounds has a reported CC50 at 24 h value.
Experiment: in vitro
Conditions: rat, gh3-tre-luc cells, AC50 (uM) modified / 1000

compound	reported.value
COc1cc(NC(C)CCCN)c2ncccc2c1 (centres unmarked) [Primaquine diphosphate]	15 µM
O=C(O)CCCCCCCCCCCC(=O)O	> 90 µM
O=C(O)COc1ccccc1/C=N/NC(=O)c1ccncc1 [Aconiazide]	> 50 µM
CCOc1ccccc1OCC	> 90 µM

Problem: Requested field: CC50 at 24 h. Item: `Cc1nc(NS(=O)(=O)c2ccc(N)cc2)nc(C)c1Br`
Result: > 50 µM

====

Experiment: in vitro
Conditions: rat, gh3-tre-luc cells, AC50 (uM) modified / 1000, Tox21_110001=Tox21_113513; viability, 1 nM T3 present, 24 h
reported.metric: CC50 at 24 h

Problem: Requested field: CC50 at 24 h. Item: C[C@@H]1[C@@H]2Cc3ccc(O)cc3[C@@]1(C)CCN2CC1CC1 [(+)-Cyclazocine]
Result: > 50 µM

====

As shown below, each of these compounds has a reported CC50 at 24 h value.
Assay: in vitro
Conditions: rat, gh3-tre-luc cells, AC50 (uM) modified / 1000
Counter-ions that a name gives are not always drawn.

compound	CC50 at 24 h
COc1ccc(C[C@H](N)C(=O)N[C@H]2[C@@H](O)[C@H](n3cnc4c(N(C)C)ncnc43)O[C@@H]2CO)cc1 [Puromycin dihydrochloride]	11.2 µM
N#Cc1ccccn1	> 100 µM
CCCNC(C)C(=O)Nc1c(C)csc1C(=O)OC (centres unmarked) [Articaine hydrochloride]	> 20 µM
CCCC(=O)Nc1ncnc2c1ncn2[C@@H]1O[C@@H]2COP(=O)(O)O[C@H]2[C@H]1OC(=O)CCC	> 50 µM

Next:
Problem: Requested field: CC50 at 24 h. Item: OCC1CCCO1 (centres unmarked) [Tetrahydrofurfuryl alcohol]
Result: > 90 µM

====

Experiment: in vitro
Settings: rat, gh3-tre-luc cells, AC50 (uM) modified / 1000
reported.metric: CC50 at 24 h

molecule	reported.value
O=P(O)(O)C(O)(Cc1cccnc1)P(=O)(O)O [Risedronate sodium]	> 50 µM

Problem: Requested field: CC50 at 24 h. Item: `CCCCCCCCCC(=O)O`
Result: > 50 µM

Problem: Requested field: CC50 at 24 h. Item: `Cc1ccccc1C#N`
Result: > 90 µM

Problem: Requested field: CC50 at 24 h. Item: `CC(=O)Nc1ccc(/C=N/NC(N)=S)cc1`
Result: > 50 µM

Problem: Requested field: CC50 at 24 h. Item: `CN1CCOCC1`
Result: > 90 µM

Problem: Requested field: CC50 at 24 h. Item: `c1ccc2[nH]c(-c3cscn3)nc2c1`
Result: > 50 µM

Problem: Requested field: CC50 at 24 h. Item: `CCCCN(CCCC)c1ccc(C(=O)c2ccccc2C(=O)O)c(O)c1`
Result: 46.7 µM

Problem: Requested field: CC50 at 24 h. Item: NCCCC[C@H](N[C@@H](CCc1ccccc1)C(=O)O)C(=O)N1CCC[C@H]1C(=O)O [Lisinopril dihydrate]
Result: > 20 µM

Problem: Requested field: CC50 at 24 h. Item: `O=C(OCC(COC(=O)c1cccnc1)(COC(=O)c1cccnc1)COC(=O)c1cccnc1)c1cccnc1`
Result: > 50 µM

Problem: Requested field: CC50 at 24 h. Item: `CO[Si](OC)(OC)c1ccccc1`
Result: > 90 µM
